Values from ChEMBL document CHEMBL1938393

molecular target: UniProt Q12809
Sequence (Q12809 whole entry): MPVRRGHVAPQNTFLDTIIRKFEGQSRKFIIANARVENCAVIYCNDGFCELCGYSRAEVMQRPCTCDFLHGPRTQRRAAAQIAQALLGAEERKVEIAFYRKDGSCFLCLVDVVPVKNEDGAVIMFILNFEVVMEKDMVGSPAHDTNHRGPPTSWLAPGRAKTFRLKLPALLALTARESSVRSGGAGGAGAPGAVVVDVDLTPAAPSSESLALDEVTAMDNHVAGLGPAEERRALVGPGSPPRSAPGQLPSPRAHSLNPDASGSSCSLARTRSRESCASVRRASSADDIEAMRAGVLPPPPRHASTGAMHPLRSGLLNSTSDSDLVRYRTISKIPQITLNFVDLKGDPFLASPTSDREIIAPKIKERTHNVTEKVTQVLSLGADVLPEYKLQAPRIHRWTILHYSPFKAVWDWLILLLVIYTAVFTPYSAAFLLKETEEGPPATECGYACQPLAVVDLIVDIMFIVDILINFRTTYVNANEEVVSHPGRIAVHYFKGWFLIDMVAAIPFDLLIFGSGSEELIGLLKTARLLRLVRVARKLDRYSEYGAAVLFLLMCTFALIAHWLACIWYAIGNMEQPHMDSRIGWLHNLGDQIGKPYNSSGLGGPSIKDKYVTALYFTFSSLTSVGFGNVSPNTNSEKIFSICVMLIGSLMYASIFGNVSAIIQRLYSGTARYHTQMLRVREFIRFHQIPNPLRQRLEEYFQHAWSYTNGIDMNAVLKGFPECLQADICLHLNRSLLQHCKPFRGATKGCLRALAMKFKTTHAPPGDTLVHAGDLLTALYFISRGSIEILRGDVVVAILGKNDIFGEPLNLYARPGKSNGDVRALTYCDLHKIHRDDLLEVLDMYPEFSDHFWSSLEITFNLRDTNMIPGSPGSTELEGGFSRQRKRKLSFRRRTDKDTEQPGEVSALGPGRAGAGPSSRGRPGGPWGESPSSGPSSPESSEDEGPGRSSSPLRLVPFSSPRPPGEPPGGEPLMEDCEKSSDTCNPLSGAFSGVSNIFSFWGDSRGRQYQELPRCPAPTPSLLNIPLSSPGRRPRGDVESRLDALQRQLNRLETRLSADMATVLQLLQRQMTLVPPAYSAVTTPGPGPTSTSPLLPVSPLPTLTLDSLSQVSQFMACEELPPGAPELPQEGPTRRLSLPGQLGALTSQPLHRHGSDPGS
pIC50: −log10 of the molar value.
Please use satisfied whenever pIC50 is not below 5, and not satisfied whenever it is.

>  <smilesString>
CCN(C)C(=O)c1ccc([C@H](c2cccc(NC(=O)C3CCC3)c2)N2CCN(Cc3cccnc3)CC2)cc1

>  <targetOrTestSystem>
UniProt Q12809

>  <group>
not satisfied

$$$$
>  <smilesString>
CCN(C)C(=O)c1ccc([C@H](c2ccccn2)N2CCN(Cc3ccccn3)CC2)cc1

>  <targetOrTestSystem>
UniProt Q12809

>  <group>
not satisfied

$$$$
>  <smilesString>
CCOC(=O)Nc1cccc([C@@H](c2ccc(C(=O)N(C)CC)cc2)N2CCN(Cc3c[nH]c(C)n3)CC2)c1

>  <targetOrTestSystem>
UniProt Q12809

>  <group>
not satisfied

$$$$
>  <smilesString>
CCOC(=O)Nc1cccc([C@@H](c2ccc(C(=O)N(CC)CC)cc2)N2CCN(Cc3cscn3)CC2)c1

>  <targetOrTestSystem>
UniProt Q12809

>  <group>
satisfied

$$$$
>  <smilesString>
CCN(C)C(=O)c1ccc([C@H](c2cccc(NC(=O)C3CC3)c2)N2CCN(Cc3nc(C)cs3)CC2)cc1

>  <targetOrTestSystem>
UniProt Q12809

>  <group>
not satisfied

$$$$
>  <smilesString>
CCN(CC)C(=O)c1ccc([C@H](c2cccc(NC(=O)C3CC3)c2)N2CCN(CCOC)CC2)cc1

>  <targetOrTestSystem>
UniProt Q12809

>  <group>
not satisfied

$$$$
>  <smilesString>
O=C(Nc1cccc([C@@H](c2ccc(C(=O)N3CCC3)cc2)N2CCN(Cc3ccc(F)cc3)CC2)c1)C1CC1

>  <targetOrTestSystem>
UniProt Q12809

>  <group>
satisfied

$$$$
>  <smilesString>
CCN(C)C(=O)c1ccc([C@H](c2cccc(NC(=O)OC)c2)N2CCN(Cc3cscn3)CC2)cc1

>  <targetOrTestSystem>
UniProt Q12809

>  <group>
not satisfied

$$$$
>  <smilesString>
CCOC(=O)Nc1cccc([C@@H](c2ccc(C(=O)N(C)CC)cc2)N2CCN(Cc3nc[nH]c3C)CC2)c1

>  <targetOrTestSystem>
UniProt Q12809

>  <group>
not satisfied

$$$$
>  <smilesString>
CCN(CC)C(=O)c1ccc([C@H](c2cccc(NC(=O)C3CC3)c2)N2CCN(Cc3ccccn3)CC2)cc1

>  <targetOrTestSystem>
UniProt Q12809

>  <group>
not satisfied

$$$$
>  <smilesString>
CN(CCO)C(=O)c1ccc([C@H](c2cccc(NC(=O)C3CC3)c2)N2CCN(Cc3ccc(F)cc3)CC2)cc1

>  <targetOrTestSystem>
UniProt Q12809

>  <group>
not satisfied

$$$$

---

target: Delta-type opioid receptor (Homo sapiens, UniProt P41143); experiment: Displacement of [I125]deltorphin from delta-opioid receptor overexpressed in human HEK293 cells
Sequence (P41143 whole entry): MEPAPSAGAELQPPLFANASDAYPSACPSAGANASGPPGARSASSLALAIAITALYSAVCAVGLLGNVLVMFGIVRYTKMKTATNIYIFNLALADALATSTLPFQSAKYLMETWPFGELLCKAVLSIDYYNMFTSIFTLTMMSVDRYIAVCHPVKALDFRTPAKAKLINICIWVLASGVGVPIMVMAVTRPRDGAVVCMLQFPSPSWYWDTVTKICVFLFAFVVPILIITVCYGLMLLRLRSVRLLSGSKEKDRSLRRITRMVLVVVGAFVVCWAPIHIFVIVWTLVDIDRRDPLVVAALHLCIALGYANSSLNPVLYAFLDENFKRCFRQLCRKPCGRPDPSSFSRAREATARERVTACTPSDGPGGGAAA
pIC50: −log10 of the molar value.
Please use condition met whenever pIC50 is not below 9, and condition not met whenever it is.

>  <smilesString>
CCOC(=O)Nc1cccc([C@@H](c2ccc(C(=O)N(CC)CC)cc2)N2CCN(Cc3cscn3)CC2)c1

>  <group>
condition met

$$$$
>  <smilesString>
CCN(CC)C(=O)c1ccc([C@H](c2cccc(NC(=O)C3CC3)c2)N2CCN(Cc3ccccn3)CC2)cc1

>  <group>
condition met

$$$$
>  <smilesString>
CCN(C)C(=O)c1ccc([C@H](c2cccc(NC(=O)C3CC3)c2)N2CCN(CCCOC)CC2)cc1

>  <group>
condition not met

$$$$
>  <smilesString>
CCN(C)C(=O)c1ccc([C@H](c2cccc(NC(=O)C3CCC3)c2)N2CCN(Cc3cccnc3)CC2)cc1

>  <group>
condition not met

$$$$
>  <smilesString>
CCN(C)C(=O)c1ccc([C@H](c2cccc(NC(=O)OC)c2)N2CCN(Cc3cscn3)CC2)cc1

>  <group>
condition met

$$$$
>  <smilesString>
CCN(C)C(=O)c1ccc([C@H](c2cccnc2)N2CCN(Cc3ccccn3)CC2)cc1

>  <group>
condition not met

$$$$
>  <smilesString>
CN(CCO)C(=O)c1ccc([C@H](c2cccc(NC(=O)C3CC3)c2)N2CCN(Cc3ccc(F)cc3)CC2)cc1

>  <group>
condition met

$$$$
>  <smilesString>
CCN(CC)C(=O)c1ccc([C@H](c2cccc(NC(=O)OC)c2)N2CCN(Cc3cncs3)CC2)cc1

>  <group>
condition met

$$$$
>  <smilesString>
CCN(CC)C(=O)c1ccc([C@H](c2cccc(NC(=O)C3CC3)c2)N2CCN(Cc3ccc(F)cc3)CC2)cc1

>  <group>
condition met

$$$$
>  <smilesString>
CCN(C)C(=O)c1ccc([C@H](c2cccc(NC(=O)C3CC3)c2)N2CCN(Cc3nc(C)cs3)CC2)cc1

>  <group>
condition not met

$$$$
>  <smilesString>
CCN(C)C(=O)c1ccc([C@H](c2ccccn2)N2CCN(Cc3ccccn3)CC2)cc1

>  <group>
condition not met

$$$$
>  <smilesString>
CCOC(=O)Nc1cccc([C@@H](c2ccc(C(=O)N3CCC3)cc2)N2CCN(Cc3cccnc3)CC2)c1

>  <group>
condition not met

$$$$
>  <smilesString>
CCOC(=O)Nc1cccc([C@@H](c2ccc(C(=O)N(C)CC)cc2)N2CCN(Cc3nc[nH]c3C)CC2)c1

>  <group>
condition met

$$$$
>  <smilesString>
CCN(C)C(=O)c1ccc([C@H](c2cccnc2)N2CCN(Cc3cscn3)CC2)cc1

>  <group>
condition not met

$$$$
